Exercise: for every item that follows, state its recorded pIC50.
System: BaF3
Experiment: Antiproliferative activity against mouse BaF3 cells expressing FGFR2 incubated for 72 hrs by CCK-8 assay
Format: functional, cell-based
Conditions: BaF3, 72 h
One number for each entry, as −log10 of the molar value.

Note down pIC50 recorded for C=CC(=O)Nc1ccc(-c2c(-c3ccc(S4(=O)=NCCCCC45CCC5)cc3)c3c(N)ncnc3n2C)cc1 (stereo unspecified)
8.82

Supply reported pIC50 belonging to this compound: C=CC(=O)Nc1ccc(-c2c(-c3ccc(S(C)(=O)=NCCC)cc3)c3c(N)ncnc3n2C)cc1 (stereo unspecified)
7.05

Answer with the recorded pIC50 for the compound listed here: C=C(C)C(=O)Nc1ccc(-c2c(-c3ccc(S4(=O)=NCCCCC4)c(F)c3)c3c(N)ncnc3n2C)cc1 (stereo unspecified)
6.98

For C=CC(=O)Nc1ccc(-c2c(-c3ccc(S4(=O)=NCCCCC4)cc3)c3c(N)ncnc3n2C)cc1 (stereo unspecified) , write its pIC50.
8.96

Others:
Fill in pIC50 for record C=CC(=O)Nc1ccc(-c2c(-c3ccc(S(=N)(=O)C4CCCC4)cc3)c3c(N)ncnc3n2C)cc1 (stereo unspecified)
8.18
